# TGT: T1, human CD19 (human, UniProt P15391 20-556)
# T1 construct: also called B-cell surface antigen B4; B-cell antigen CD19
# T1 sequence: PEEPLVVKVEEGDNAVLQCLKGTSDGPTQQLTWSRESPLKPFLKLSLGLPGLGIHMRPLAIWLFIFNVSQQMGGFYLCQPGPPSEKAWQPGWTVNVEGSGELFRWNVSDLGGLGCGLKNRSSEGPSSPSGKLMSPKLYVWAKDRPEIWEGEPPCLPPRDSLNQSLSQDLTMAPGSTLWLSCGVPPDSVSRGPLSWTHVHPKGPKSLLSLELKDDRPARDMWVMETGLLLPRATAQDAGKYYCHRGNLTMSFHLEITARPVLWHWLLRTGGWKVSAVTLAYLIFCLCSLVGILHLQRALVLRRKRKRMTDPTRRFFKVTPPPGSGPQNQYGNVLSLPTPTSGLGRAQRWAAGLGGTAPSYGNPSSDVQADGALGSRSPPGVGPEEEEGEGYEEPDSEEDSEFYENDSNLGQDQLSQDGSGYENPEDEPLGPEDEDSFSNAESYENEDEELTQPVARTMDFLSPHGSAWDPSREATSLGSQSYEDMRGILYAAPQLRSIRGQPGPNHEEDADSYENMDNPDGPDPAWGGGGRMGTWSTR
# TEST DETAILS: binding affinity relative to the parent H1L1 mAb (Example 5); assay and format not named on the sheet
REPORTED METRIC: Fold change binding (fold)
Answers are plain numbers, in fold.

*Q* Answer with reported Fold change binding of H1 / L1.92 (antibody, V domains shown, vs H1L1 (Kabat): VL A55L; also called 4G7 H1_L1.92) VH: EVQLVESGGGLVKPGGSLKLSCAASGYTFTSYVMHWVRQAPGKGLEWIGYINPYNDGTKYNEKFQGRVTISSDKSISTAYMELSSLRSEDTAMYYCARGTYYYGSRVFDYWGQGTLVTVSS VL: DIVMTQSPATLSLSPGERATLSCRSSKSLLNSNGNTYLYWFQQKPGQSPQLLIYRMSNLLSGVPDRFSGSGSGTEFTLTISSLEPEDFAVYYCMQHLEYPFTFGAGTKLEIK
*A* 1.54

Your task in this section: give Fold change binding for each listed record.
1. H1 / L1.55 (antibody, V domains shown, vs H1L1 (Kabat): VL N53Y; also called 4G7 H1_L1.55) VH: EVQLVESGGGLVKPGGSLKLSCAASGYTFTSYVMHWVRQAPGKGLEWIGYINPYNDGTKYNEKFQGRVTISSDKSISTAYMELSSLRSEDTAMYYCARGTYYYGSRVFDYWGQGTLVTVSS VL: DIVMTQSPATLSLSPGERATLSCRSSKSLLNSNGNTYLYWFQQKPGQSPQLLIYRMSYLASGVPDRFSGSGSGTEFTLTISSLEPEDFAVYYCMQHLEYPFTFGAGTKLEIK
2. H1 / L1.32 (antibody, V domains shown, vs H1L1 (Kabat): VL S27eV; also called 4G7 H1_L1.32) VH: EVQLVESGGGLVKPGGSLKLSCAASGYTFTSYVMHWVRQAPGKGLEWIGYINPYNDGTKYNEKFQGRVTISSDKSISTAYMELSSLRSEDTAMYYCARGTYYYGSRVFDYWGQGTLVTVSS VL: DIVMTQSPATLSLSPGERATLSCRSSKSLLNVNGNTYLYWFQQKPGQSPQLLIYRMSNLASGVPDRFSGSGSGTEFTLTISSLEPEDFAVYYCMQHLEYPFTFGAGTKLEIK
3. H1.204 / L1.163 (antibody, V domains shown, vs H1L1 (Kabat): VH D55E/K58E/S100cT; VL L27cQ/S27eA/G29S/A55N/F96I; also called 4G7 H1.204_L1.163) VH: EVQLVESGGGLVKPGGSLKLSCAASGYTFTSYVMHWVRQAPGKGLEWIGYINPYNEGTEYNEKFQGRVTISSDKSISTAYMELSSLRSEDTAMYYCARGTYYYGTRVFDYWGQGTLVTVSS VL: DIVMTQSPATLSLSPGERATLSCRSSKSLQNANSNTYLYWFQQKPGQSPQLLIYRMSNLNSGVPDRFSGSGSGTEFTLTISSLEPEDFAVYYCMQHLEYPITFGAGTKLEIK
4. H1.191 / L1.162 (antibody, V domains shown, vs H1L1 (Kabat): VH K58E/S100cT; VL L27cQ/S27eA/G29A/A55N/F96I; also called 4G7 H1.191_L1.162) VH: EVQLVESGGGLVKPGGSLKLSCAASGYTFTSYVMHWVRQAPGKGLEWIGYINPYNDGTEYNEKFQGRVTISSDKSISTAYMELSSLRSEDTAMYYCARGTYYYGTRVFDYWGQGTLVTVSS VL: DIVMTQSPATLSLSPGERATLSCRSSKSLQNANANTYLYWFQQKPGQSPQLLIYRMSNLNSGVPDRFSGSGSGTEFTLTISSLEPEDFAVYYCMQHLEYPITFGAGTKLEIK
5. H1.202 / L1.162 (antibody, V domains shown, vs H1L1 (Kabat): VH D55E/S100cT; VL L27cQ/S27eA/G29A/A55N/F96I; also called 4G7 H1.202_L1.162) VH: EVQLVESGGGLVKPGGSLKLSCAASGYTFTSYVMHWVRQAPGKGLEWIGYINPYNEGTKYNEKFQGRVTISSDKSISTAYMELSSLRSEDTAMYYCARGTYYYGTRVFDYWGQGTLVTVSS VL: DIVMTQSPATLSLSPGERATLSCRSSKSLQNANANTYLYWFQQKPGQSPQLLIYRMSNLNSGVPDRFSGSGSGTEFTLTISSLEPEDFAVYYCMQHLEYPITFGAGTKLEIK

*A*
1. 1.58
2. 2.61
3. 4.73
4. 3.35
5. 4.32

Your task in this section: give Fold change binding for each listed record.
1. H1.52 / L1.162 (antibody, V domains shown, vs H1L1 (Kabat): VH S100cT; VL L27cQ/S27eA/G29A/A55N/F96I; also called 4G7 H1.52_L1.162) VH: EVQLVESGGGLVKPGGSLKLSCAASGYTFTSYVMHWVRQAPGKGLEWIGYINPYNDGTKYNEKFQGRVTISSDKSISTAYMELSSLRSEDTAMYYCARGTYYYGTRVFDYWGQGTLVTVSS VL: DIVMTQSPATLSLSPGERATLSCRSSKSLQNANANTYLYWFQQKPGQSPQLLIYRMSNLNSGVPDRFSGSGSGTEFTLTISSLEPEDFAVYYCMQHLEYPITFGAGTKLEIK
2. H1 / L1.26 (antibody, V domains shown, vs H1L1 (Kabat): VL L27cQ; also called 4G7 H1_L1.26) VH: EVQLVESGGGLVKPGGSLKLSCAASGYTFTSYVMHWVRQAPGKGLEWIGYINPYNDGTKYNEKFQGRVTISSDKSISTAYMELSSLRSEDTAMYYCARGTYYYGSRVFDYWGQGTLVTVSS VL: DIVMTQSPATLSLSPGERATLSCRSSKSLQNSNGNTYLYWFQQKPGQSPQLLIYRMSNLASGVPDRFSGSGSGTEFTLTISSLEPEDFAVYYCMQHLEYPFTFGAGTKLEIK

*A*
1. 5.57
2. 1.73

Your task in this section: give Fold change binding for each listed record.
1. H1 / L1.68 (antibody, V domains shown, vs H1L1 (Kabat): VL F96N; also called 4G7 H1_L1.68) VH: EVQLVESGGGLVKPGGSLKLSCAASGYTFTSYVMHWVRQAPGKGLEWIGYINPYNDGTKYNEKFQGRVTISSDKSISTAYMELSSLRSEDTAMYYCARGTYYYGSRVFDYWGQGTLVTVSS VL: DIVMTQSPATLSLSPGERATLSCRSSKSLLNSNGNTYLYWFQQKPGQSPQLLIYRMSNLASGVPDRFSGSGSGTEFTLTISSLEPEDFAVYYCMQHLEYPNTFGAGTKLEIK
2. H1 / L1.3 (antibody, V domains shown, vs H1L1 (Kabat): VL S52Q; also called 4G7 H1_L1.3) VH: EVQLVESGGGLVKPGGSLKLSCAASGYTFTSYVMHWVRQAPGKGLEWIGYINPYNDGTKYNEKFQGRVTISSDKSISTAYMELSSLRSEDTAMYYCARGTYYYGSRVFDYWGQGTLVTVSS VL: DIVMTQSPATLSLSPGERATLSCRSSKSLLNSNGNTYLYWFQQKPGQSPQLLIYRMQNLASGVPDRFSGSGSGTEFTLTISSLEPEDFAVYYCMQHLEYPFTFGAGTKLEIK

*A*
1: 2.12; 2: 1.85
